The reported measurements were obtained from ChEMBL document CHEMBL4346654.

Could you please report measured MBC for the items listed next?
Test system: Streptococcus pneumoniae
Assay: Bactericidal activity against erythromycin-susceptible Streptococcus pneumoniae ATCC49619 pretreated followed by subculture in absence of compound measured after 24 hrs
Format: functional

Input line: Requested read-out: MBC. Entry: "CC[C@H]1OC(=O)[C@@](C)(F)C(=O)[C@H](C)[C@@H](O[C@@H]2O[C@H](C)C[C@H](N(C)C)[C@H]2O)[C@](C)(OC)C[C@@H](C)/C(=N\OCC#Cc2ccc3c(c2)c(=O)c(C(=O)NC)cn3CC)[C@H](C)[C@H]2OC(=O)O[C@@]21C"
Output line: ≤ 8 ng/mL

Input line: Requested read-out: MBC. Entry: "CC[C@H]1OC(=O)[C@@](C)(F)C(=O)[C@H](C)[C@@H](O[C@@H]2O[C@H](C)C[C@H](N(C)C)[C@H]2O)[C@](C)(OC/C=C/c2ccc3c(c2)c(=O)c(C(N)=O)cn3CC)C[C@@H](C)/C(=N\OC)[C@H](C)[C@H]2OC(=O)O[C@@]21C"
Output line: ≤ 8 ng/mL

Input line: Requested read-out: MBC. Entry: "CC[C@H]1OC(=O)[C@@](C)(F)C(=O)[C@H](C)[C@@H](O[C@@H]2O[C@H](C)C[C@H](N(C)C)[C@H]2O)[C@](C)(OC)C[C@@H](C)/C(=N\OCC#Cc2ccc3c(c2)c(=O)c(C(N)=O)cn3CC)[C@H](C)[C@H]2OC(=O)O[C@@]21C"
Output line: ≤ 8 ng/mL
